// reported TGI for each item listed
# Test system: SF-268 CNS
# assayOverview: NCI tumour cell line growth inhibition, 48 h
Provide only the numeric value, understood in µM.

Look over these answered cases.
> print(dat)
                                     smiles  readoutnumber
1              Cc1ccc(CSC(N)=Nc2ccccc2)cc1C           36.7
2  NCCCOc1cc(Cl)ccc1NC(=O)c1cc2ccccc2cc1OCCCN           2.63

Consider now this further compound.
Query block: Tell me the measured TGI of O=C1C(Br)=CC2(C=C1Br)CCNC1=C2C(=O)c2ncccc2C1=O , please.
Result block: 4.99

====

# Tested on: UO-31 renal
# assayOverview: NCI tumour cell line growth inhibition, 48 h
measurementLabel: TGI

> print(dat)
                                   molecule  measurementlabel   result
1  O=[N+]([O-])c1c(F)c(F)c2c(c1F)N(CCCCCl)c1ccccc1S2               TGI  30.5 µM
2  CCOC(=O)C(C)(c1c(C)[nH]c2ccccc12)c1c(C)[nH]c2ccccc12               TGI    35 µM
3  OC(C/C=N/N=C/CC(O)(C(F)(F)Cl)C(F)(F)Cl)(C(F)(F)Cl)C(F)(F)Cl               TGI  > 10 µM
4           COc1ccc(/C=N/N=C(\N)NO)c(OC)c1C               TGI  31.7 µM
5  CC(=O)c1c(N=[N+]=[N-])c2cccc3c2n(c1=O)CCC3               TGI  55.6 µM

Query block: Tell me the measured TGI of COc1cccc(-c2nc(-c3cnccn3)n(C/C=C/c3ccccc3)n2)c1 , please.
Result block: > 10 µM

Query block: Tell me the measured TGI of N[C@H](Cc1ccc2oc3cc(=O)c4ccccc4c-3nc2c1)C(=O)O , please.
Result block: > 100 µM

====

# Tested on: OVCAR-3 ovarian
# assayOverview: NCI tumour cell line growth inhibition, 48 h
measurementLabel: TGI

molecule	TGI
CS(=O)(=O)CS(=O)(=O)OCCCl	983 µM

Query block: Tell me the measured TGI of CC(=O)OCC1OC(n2c(C)c(N=Nc3ccc(Cl)cc3)c(C)c(C#N)c2=S)C(OC(C)=O)C(OC(C)=O)C1OC(C)=O (stereo not given) , please.
Result block: > 100 µM

Query block: Tell me the measured TGI of O=C1OCC2OC(=O)c3cc(O)c(O)c(O)c3-c3c(O)c(O)c(O)c4c3C(=O)OC(C2OC(=O)c2cc(O)c(O)c(O)c2-c2c1cc(O)c(O)c2O)C1OC(=O)C2C4=C(O)C(=O)C23Oc2cc(O)c4c(c2[C@H]13)O[C@H](c1ccc(O)c(O)c1)[C@@H](O)C4 (stereo not given in full) , please.
Result block: 83.4 µM

Query block: Tell me the measured TGI of Cc1ccc(C(=O)NCc2ccccc2)cc1N=NN(C)C , please.
Result block: > 100 µM

Query block: Tell me the measured TGI of CN1CCc2c(sc3[nH]c(=S)[nH]c(=S)c23)C1 , please.
Result block: > 100 µM

Query block: Tell me the measured TGI of COc1cc(-c2nnc3n2NC=C(C(=O)O)S3)cc(OC)c1OC , please.
Result block: > 100 µM

====

# Test system: A549 NSCLC
# assayOverview: NCI tumour cell line growth inhibition, 48 h; in the data active means GI50 below about 0.43 µM; inactive means the rest
In this exercise, the only acceptable responses are active, inactive

Query block: What did the test return for O=C(N[C@@H](Cc1coc2ccccc12)B(O)O)[C@@H]1C[C@H]2CC[C@@H]1O2 ?
Result block: inactive

Query block: What did the test return for O=C(NNc1cnccn1)c1nc2cc(F)ccc2n2cccc12 ?
Result block: inactive

Query block: What did the test return for Cn1cc(-c2csc(-c3cn(C)c4ccc(F)cc34)n2)c2cnccc21 ?
Result block: inactive

Query block: What did the test return for C=CCn1c(SCC(=O)Nc2ccc(C(=O)/C=C/c3cc(OC)c(OC)c(OC)c3)cc2)nnc1-c1ccc(OC)cc1 ?
Result block: inactive

Query block: What did the test return for COc1cc2c3c(n(CCCN(C)CCO)c(=O)c2cc1OC)-c1cc2c(cc1C3=O)OCO2 ?
Result block: inactive

Query block: What did the test return for NCCCn1c2c(c3ccccc3c1=O)C(=O)c1ccccc1-2 ?
Result block: active

Query block: What did the test return for O=C(NC1CCCCC1)c1ccc(Nc2ncnc3c2cnn3-c2ccccc2)cc1 ?
Result block: inactive

Query block: What did the test return for O=C(CCN1CCOCC1)Nc1cccc(-n2cc(-c3ccncc3)c(-c3ccc(Cl)c(O)c3)n2)c1 ?
Result block: inactive

Query block: What did the test return for COc1cc(OC)c2sc(-c3ccc(-n4cncc4-c4cc(OC)c(OC)c(OC)c4)cc3)nc2c1 ?
Result block: inactive

====

# System: SK-MEL-2 melanoma
# assayOverview: NCI tumour cell line growth inhibition, 48 h
Where a SMILES comes first, the peptide text is derived from it. The star is where a group is joined. Cbz = O=C(OCc1ccccc1)*
measurementLabel: TGI

Look over these answered cases.
molecule	targetSystem	TGI
CCOC(=O)CCC(NC(=O)c1ccc(NCc2ccc3nc(-c4ccccc4)c(Cl)nc3c2)cc1)C(=O)OCC (stereo not given)	SK-MEL-2 melanoma	25.9 µM
COc1ccc(C2(CC(C)C)CCN(S(=O)(=O)c3ccc(C)cc3)C2)cc1OC (stereo not given)	SK-MEL-2 melanoma	47.2 µM
O=c1[nH]nc(Cc2ccc(Cl)cc2)n1/N=C/c1cccs1	SK-MEL-2 melanoma	93.6 µM
C=CCCC1(C)CCCNC1=S (stereo not given)	SK-MEL-2 melanoma	> 100 µM
CCOC(=O)CCC(NC(=O)OCc1ccccc1)C(=O)NC(CCC(=O)OCC)C(=O)OCC (stereo not given) (Cbz-Glu(OEt)-Glu(OEt)-OEt; configuration not given here)	SK-MEL-2 melanoma	> 100 µM

Query block: Tell me the measured TGI of CCOC(=O)CCC1(CCC(=O)OCC)CCCCCCCCC(CCC(=O)OCC)(CCC(=O)OCC)C(=O)C1=O , please.
Result block: > 100 µM

Query block: Tell me the measured TGI of CC(=O)NC1C(Sc2ncn(C3OC(CO)C(O)C(O)C3NC(C)=O)n2)OC(CO)C(O)C1O (stereo not given) , please.
Result block: > 100 µM

Query block: Tell me the measured TGI of C[n+]1c2ccccc2c(NC(CCCN=C(N)N)C(=O)O)c2ccccc21 (stereo not given) , please.
Result block: > 100 µM

Query block: Tell me the measured TGI of COc1ccc(/C=C/c2cnccn2)cc1OC , please.
Result block: > 10 µM

Query block: Tell me the measured TGI of C[P+](C)(C)c1ccccc1 , please.
Result block: > 100 µM

====

# Test system: HS 578T breast
# assayOverview: NCI tumour cell line growth inhibition, 48 h; in the data active = GI50 below about 0.43 µM; inactive = the rest
In this exercise, the only acceptable responses are YES (active), NO (inactive)

Solved cases below.
> print(dat)
                                   molecule  categorylabel
1  Cc1noc2c1-c1ccccc1C(c1ccc(Cl)cc1)=N[C@H]2CC(N)=O             NO
2  COc1ccc(-c2cc(Nc3ccnc(N4CCOCC4)n3)on2)cc1            YES
3  COc1ccc(-c2ccc(NNC(=O)c3ccc(F)cc3)nn2)cc1OC             NO
4    NCCCn1c2c(c3ccccc3c1=O)C(=O)c1ccccc1-2             NO
5              c1ccc2c(c1)c1ccccc1c1ccccc21             NO

Query block: What did the test return for O=C(NC1CCCCC1)c1ccc(Nc2ncnc3c2cnn3-c2ccccc2)cc1 ?
Result block: NO

Query block: What did the test return for CNC(C)[C@H]1CCC2C3CC=C4C(=O)[C@@H](NC(=O)C=C(C)C)CC[C@]4(C)C3CC[C@@]21C (stereo partly drawn) ?
Result block: NO

Query block: What did the test return for COc1cc2c3c(n(CCCN(CCO)CCO)c(=O)c2cc1OC)-c1cc2c(cc1C3=O)OCO2 ?
Result block: NO

====

# Test system: KM12 colon
# assayOverview: NCI tumour cell line growth inhibition, 48 h
measurementLabel: TGI (µM)
Provide only the numeric value, understood in µM.

Look over these answered cases.
molecule	TGI, µM
CNC(C)C(O)c1ccc2oc3cc(=O)c4ccccc4c-3nc2c1 (centres undefined)	49.8
Cc1c2ccc3ccccc3c2c[n+]2ccccc12	12
COc1cc(/C=C/C(=O)C(C(=O)/C=C/c2ccc(OC(=O)CCNC34CC5CC(CC(C5)C3)C4)c(OC)c2)C(=O)CCNC23CC4CC(CC(C4)C2)C3)ccc1OC(=O)CCNC12CC3CC(CC(C3)C1)C2 (centres undefined)	5.96

Query block: Tell me the measured TGI of COC(=O)C1=C(OC)[C@H]2C#C/C=C\C#C[C@@H]3Nc4c(cc(O)c5c4C(=O)c4ccccc4C5=O)[C@]24O[C@@]34[C@H]1C , please.
Result block: 0.0475
